target: UniProt:P52895; test: AKR enzyme inhibition assay, NADP+ dependent oxidation of S-tetralol, AKR1C2 counter-screen; assay type: biochemical; details: Table 4; compounds of formula (A3); read-out: IC50 AKR1C2
Outcome Measure: pIC50
Please note pIC50 is a logarithmic value: minus log10 of concentration in mol/L. Answer with that number alone.

For CC[C@@H](NC(=O)c1cc(/C=C/C(=O)O)cc(-c2ccc(C(C)C)cc2)c1)c1ccccc1 [Compound 20a] , what is its reported pIC50? 5.22

====

molecular target: AKR1C2 (Homo sapiens (Human), UniProt P52895); assay: AKR enzyme inhibition assay, NADP+ dependent oxidation of S-tetralol, AKR1C2 counter-screen; format: biochemical; details: Table 2; recombinant enzyme, S-tetralol at Km; read-out: IC50 ± SD AKR1C2
Sequence (P52895 whole entry): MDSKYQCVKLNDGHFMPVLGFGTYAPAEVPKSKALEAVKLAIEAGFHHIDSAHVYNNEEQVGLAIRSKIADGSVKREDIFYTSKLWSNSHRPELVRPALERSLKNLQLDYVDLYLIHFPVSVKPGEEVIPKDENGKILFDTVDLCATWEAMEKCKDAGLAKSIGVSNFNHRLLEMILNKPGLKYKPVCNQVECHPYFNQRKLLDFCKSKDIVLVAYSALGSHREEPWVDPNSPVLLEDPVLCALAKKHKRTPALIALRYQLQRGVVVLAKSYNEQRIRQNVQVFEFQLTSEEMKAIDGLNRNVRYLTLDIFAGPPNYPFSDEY
Outcome Measure: pIC50
FYI, pIC50 means -log10 of a concentration in mol per litre.

Answered examples (3):
1) CC(C)=CCOc1cc(/C=C/C(=O)O)cc(C(=O)NCc2ccc(C)cc2)c1 [Compound 10] = 4.82
2) C/C=C/Cc1cc(/C=C/C(=O)O)cc(C(=O)NCc2ccc(C)cc2)c1 [Compound A1-z] = 4.41
3) Cc1ccc(CNC(=O)c2cc(/C=C/C(=O)O)cc(-c3ccc4cccnc4c3)c2)cc1 [Compound A1-p] = 4.92

Lab note: need pIC50 with AKR1C2 (Homo sapiens (Human), UniProt P52895) for entry Cc1ccc(CNC(=O)c2cc(/C=C/C(=O)O)cc(-c3cccc(F)c3)c2)cc1 [Compound A1-f] , please look it up. 4.32

Query for AKR1C2 (Homo sapiens (Human), UniProt P52895): what pIC50 does the record show for Cc1ccc(CNC(=O)c2cc(/C=C/C(=O)O)cc(-c3ccc4ncnn4c3)c2)cc1 [Compound A1-r] ? 4.21

Request - read-out pIC50 | tested on AKR1C2 (Homo sapiens (Human), UniProt P52895) | compound Cc1ccc(CNC(=O)c2cc(/C=C/C(=O)O)cc(CC(C)c3ccccc3)c2)cc1 (stereo not shown) [Compound A1-x] 3.81

Given the entry Cc1ccc(CNC(=O)c2cc(/C=C/C(=O)O)cc(-c3ccc(C)cc3)c2)cc1 [Compound A1-i] , what pIC50 was observed with AKR1C2 (Homo sapiens (Human), UniProt P52895)? 4.80

====

target: AKR1C3 (Homo sapiens (Human)); test: AKR enzyme inhibition assay, NADP+ dependent oxidation of S-tetralol, AKR1C3; format: biochemical; conditions: Table 2; recombinant enzyme, S-tetralol at Km; read-out: IC50 ± SD AKR1C3
Sequence (P42330 whole entry): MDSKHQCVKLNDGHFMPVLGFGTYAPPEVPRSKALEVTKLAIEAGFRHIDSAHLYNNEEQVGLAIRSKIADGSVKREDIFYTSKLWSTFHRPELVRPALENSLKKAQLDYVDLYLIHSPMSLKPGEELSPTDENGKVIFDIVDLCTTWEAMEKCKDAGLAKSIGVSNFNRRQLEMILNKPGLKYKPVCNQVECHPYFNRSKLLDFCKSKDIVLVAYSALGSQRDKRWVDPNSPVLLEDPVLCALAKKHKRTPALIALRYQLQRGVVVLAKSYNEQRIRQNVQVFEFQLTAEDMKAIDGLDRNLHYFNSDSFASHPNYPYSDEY
pIC50: −log10 of the molar value.
Short version: pIC50 at least 7 is criterion met, less is criterion not met.

1) Cc1ccc(CNC(=O)c2cc(/C=C/C(=O)O)cc(-c3ccc(Cl)cc3)c2)cc1 = criterion met

// inclusive: pIC50 at least 7? input: Cc1ccc(CNC(=O)c2cc(C#CC3CC3)cc(/C=C/C(=O)O)c2)cc1 criterion not met

Could you verify whether the entry Cc1ccc(CNC(=O)c2cc(/C=C/C(=O)O)cc(-c3ccc(C(F)(F)F)cc3)c2)cc1 shows pIC50 of no less than 7? criterion not met

pIC50 >= 7 for COc1ccc(-c2cc(/C=C/C(=O)O)cc(C(=O)NCc3ccc(C)cc3)c2)cc1 ? criterion not met

Identify whether the reported pIC50 of the following compound is 7 or greater: CCc1ccc(-c2cc(/C=C/C(=O)O)cc(C(=O)NCc3ccc(C)cc3)c2)cc1 criterion not met

For this compound, is measured pIC50 7 or higher? Cc1ccc(CNC(=O)c2cc(/C=C/C(=O)O)cc(-c3ccc(C#N)cc3)c2)cc1 criterion not met

Form field: pIC50 at least 7? Entry: Cc1ccc(CNC(=O)c2cc(Br)cc(/C=C/C(=O)O)c2)cc1 criterion not met

Quick check: does Cc1ccc(CNC(=O)c2cc(/C=C/C(=O)O)cc(-c3cccc(F)c3)c2)cc1 have pIC50 greater than or equal to 7? criterion met

Does pIC50 meet or surpass 7 for Cc1ccc(CNC(=O)c2cc(/C=C/C(=O)O)cc(-c3ccc4ncnn4c3)c2)cc1 ? criterion met

Could you verify whether the entry Cc1ccc(CNC(=O)c2cc(C#Cc3ccccc3)cc(/C=C/C(=O)O)c2)cc1 shows pIC50 of no less than 7? criterion not met

In plain terms: is recorded pIC50 at least 7 for Cc1ccc(CNC(=O)c2cc(/C=C/C(=O)O)cc(-c3ccc(-c4ccccc4)cc3)c2)cc1 ? criterion met
